The entries below come with measured pIC50 values attached.
test system: human T cells; assay: Inhibition of 5-HT-dependent T Cell Proliferation; format: cell-based; conditions: Homo sapiens, T-cell, monocyte-free human T cells stimulated with PWM and 5-HT; 3H-thymidine incorporation; 7 days
pIC50 field: float, defined as -log10 of concentration (mol/L).

| compound | experimental_readout | result |
| --- | --- | --- |
| OCC12c3ccccc3C(c3ccccc31)C1CN(CCCN3CCN(c4ccc(F)cc4)CC3)CC12 (centres unmarked) | pIC50 | 5.00 |
| Fc1ccccc1N1CCN(CCCCN2CC3C4c5ccccc5C(c5ccccc54)C3C2)CC1 (centres unmarked) | pIC50 | 5.70 |
| O=C1C2C3c4ccccc4C(CCl)(c4ccccc43)C2C(=O)N1CCCN1CCN(c2ccc(F)cc2)CC1 (centres unmarked) | pIC50 | 5.00 |

Query string: Consider the compound shown here: OCC12c3ccccc3C(c3ccccc31)C1CN(CCCN3CCN(c4ccccc4)CC3)CC12 (centres unmarked) What is its recorded pIC50?
Result string: 5.00

Query string: Try the compound Clc1ccc(N2CCN(CCCCN3CC4C5c6ccccc6C(c6ccccc65)C4C3)CC2)cc1Cl (centres unmarked)
Result string: 5.30

Query string: Try the compound O=C1C2C(CN1CCCN1CCN(c3ccc(F)cc3)CC1)C1c3ccccc3C2(c2ccccc2)c2ccccc21 (centres unmarked)
Result string: 5.70

---

test system: human T cells; assay: Inhibition of 5-HT-dependent T Cell Proliferation; type: cell-based; details: Homo sapiens, T-cell, monocyte-free human T cells stimulated with PWM and 5-HT; 3H-thymidine incorporation; 7 days
pIC50: −log10 of the molar value.
experimental_readout: pIC50

Previously resolved entries follow.
| compound | pIC50 |
| --- | --- |
| O=C1C2C3c4ccccc4C(c4ccccc43)C2C(=O)N1CCCCN1CCN(c2ccc(F)cc2)CC1 (centres unmarked) | < 5.00 |
| Cc1cccc(C)c1N1CCN(CCCN2C(=O)C3C4c5ccccc5C(c5ccccc54)C3C2=O)CC1 (centres unmarked) | < 5.00 |
| CC12c3ccccc3C(c3ccccc31)C1C(=O)N(CCCN3CCN(c4ccc(F)cc4)CC3)C(=O)C12 (centres unmarked) | < 5.00 |

Query string: Consider the compound shown here: O=C1C2C3c4ccccc4C(CO)(c4ccccc43)C2C(=O)N1CCCN1CCN(c2ccccc2)CC1 (centres unmarked) What is its recorded pIC50?
Result string: < 5.00

Query string: Try the compound CCc1ccccc1N1CCN(CCCN2C(=O)C3C4c5ccccc5C(c5ccccc54)C3C2=O)CC1 (centres unmarked)
Result string: < 5.00

Query string: Try the compound O=C1C2C3c4ccccc4C(c4ccccc43)C2C(=O)N1CCCN1CCN(c2cccc(C(F)(F)F)c2)CC1 (centres unmarked)
Result string: < 5.00

---

The entries below come with measured IC50 values attached.
system: human T cells; assay: Inhibition of 5-HT-dependent T Cell Proliferation; type: cell-based; details: Homo sapiens, T-cell, monocyte-free human T cells stimulated with PWM and 5-HT; 3H-thymidine incorporation; 7 days
Field: numeric (µM). Do not append units.

Previously resolved entries follow.
| compound | IC50 / µM |
| --- | --- |
| CC12CN(CCCN3CCN(c4ccc(F)cc4)CC3)CC1C1c3ccccc3C2c2ccccc21 (centres unmarked) [Example 105] | 2 |
| Fc1ccc(N2CCN(CCCN3CC4C5c6ccccc6C(c6ccccc65)C4C3)CC2)cc1 (centres unmarked) [Example 58] | 5 |
| Clc1ccccc1N1CCN(CCCCN2CC3C4c5ccccc5C(c5ccccc54)C3C2)CC1 (centres unmarked) [Example 65] | 0.5 |

Query string: Consider the compound shown here: Fc1ccc(N2CCN(CCCN3CC4C5c6ccccc6C(Cl)(c6ccccc65)C4C3)CC2)cc1 (centres unmarked) [Example 100] What is its recorded IC50?
Result string: 2

Value source: patent US5409932A
